experimental.system: cGMP-dependent protein kinase 1 (Homo sapiens) (UniProt Q13976);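 note: listed percent inhibition of PRKG1 is a mean value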
Sequence (Q13976 whole entry): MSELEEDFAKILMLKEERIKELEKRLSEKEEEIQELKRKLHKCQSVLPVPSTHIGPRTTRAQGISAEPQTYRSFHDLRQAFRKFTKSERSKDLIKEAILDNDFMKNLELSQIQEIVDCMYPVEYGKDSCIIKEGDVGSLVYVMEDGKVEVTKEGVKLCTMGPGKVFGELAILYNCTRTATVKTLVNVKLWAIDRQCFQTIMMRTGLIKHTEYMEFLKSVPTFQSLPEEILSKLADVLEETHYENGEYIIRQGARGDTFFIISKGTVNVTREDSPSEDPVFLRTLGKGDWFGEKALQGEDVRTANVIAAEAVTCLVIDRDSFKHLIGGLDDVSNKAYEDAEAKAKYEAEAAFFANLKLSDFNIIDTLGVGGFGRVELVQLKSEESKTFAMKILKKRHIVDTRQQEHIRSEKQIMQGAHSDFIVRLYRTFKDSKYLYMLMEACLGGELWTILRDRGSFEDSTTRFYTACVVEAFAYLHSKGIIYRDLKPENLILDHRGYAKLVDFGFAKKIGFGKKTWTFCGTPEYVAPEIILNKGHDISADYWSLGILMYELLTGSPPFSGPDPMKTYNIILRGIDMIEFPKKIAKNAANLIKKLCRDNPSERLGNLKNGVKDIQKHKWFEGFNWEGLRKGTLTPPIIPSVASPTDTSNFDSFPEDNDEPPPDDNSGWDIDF
conditions: at 1 µM
parameter: inhibition (%)
Field: numeric (%). Do not append units.

smiles.data | inhibition [%]
COc1ccc(C2=C(N3CCc4ccccc43)C(=O)NC2=O)cc1 | 6.23
CS(=O)(=O)CCNCc1cc(-c2cc3c(Nc4ccc(OCc5cccc(F)c5)c(Cl)c4)ncnc3s2)cs1 | 8.33
Fc1ccc(-c2ncn(C3CCNCC3)c2-c2ccnc(Oc3ccc(Oc4ccccc4)cc3)n2)cc1 | 7.25
CCc1ccc(Oc2nccc(-c3c(-c4ccc(F)cc4)ncn3C3CCNCC3)n2)cc1 | 10.4

Recorded inhibition for `COc1cccc(/C=N/Nc2ncnc3c2cnn3-c2cccc(OC)c2)c1` , please?
4.05

What inhibition value was documented for this compound, `CN(C)CCCNc1nccc(-c2c(-c3ccc(F)cc3)nn3cc(C(F)(F)F)ccc23)n1` ?
3.76

Record request: inhibition value, item `NS(=O)(=O)c1ccc(Nc2cc(-c3ccc(O)c(F)c3)n[nH]2)cc1`
-1

What inhibition value was documented for this compound, `CN(C)c1ccc2c(c1)/C(=C/Nc1ccc(S(N)(=O)=O)cc1)C(=O)N2` ?
1.76

Field request: inhibition | item: `O=C(Nc1n[nH]c2nc(-c3ccc(O)cc3)c(Br)cc12)C1CC1`
6.22

What measured inhibition goes with `COc1cccc(-n2cnc3c(N/N=C/c4ccncc4)ncnc32)c1` ?
3.77
